The molecules listed here are annotated with their Residual content in simulated gastric juice after 4 hours (compared with 0 hour content).
- test_protocol: Stability in simulated gastric fluid (SGF)
- Assay type: physicochemical
- measurement_setup: 37° C., 1000 rpm
measurement_name: Residual content in simulated gastric juice after 4 hours (compared with 0 hour content)

[
  {
    "molecule": "Cc1onc(-c2ccc(F)cc2)c1COc1ccc(-n2nnc3c2CCOC3)cn1 [Compound 50]",
    "assay_result": "82% (4 hours)"
  },
  {
    "molecule": "Cc1onc(-c2ccc(F)cc2)c1COc1cnc(-c2nnc3n2CCCC3)cn1 [Compound 32]",
    "assay_result": "83% (4 hours)"
  },
  {
    "molecule": "Cc1onc(-c2ccc(F)cc2)c1COc1ccc(-c2cc3n(c(=O)n2)CCN3C)cn1 [Compound 41]",
    "assay_result": "35% (4 hours)"
  },
  {
    "molecule": "Cc1onc(-c2ccc(F)cc2)c1COc1cnc(-c2nnc3n2CCOC3)cn1 [Compound 19]",
    "assay_result": "94% (4 hours)"
  },
  {
    "molecule": "Cc1onc(-c2ccc(F)cc2)c1COc1cnc(-c2cc3n(c(=O)n2)CC24CC(CN32)C4)cn1 [Compound 9]",
    "assay_result": "64% (4 hours)"
  },
  {
    "molecule": "Cc1onc(-c2ccc(F)cc2)c1COc1cnc(N2CCn3cccc3C2=O)cn1 [Compound 45]",
    "assay_result": "87% (4 hours)"
  },
  {
    "molecule": "Cc1onc(-c2ccc(F)cc2)c1COc1cnc(N2CCn3c(C)nnc3C2)cn1 [Compound 27]",
    "assay_result": "63% (4 hours)"
  },
  {
    "molecule": "Cc1onc(-c2ccc(F)cc2)c1COc1cnc(-c2nnc3n2CCOCC3)cn1 [Compound 33]",
    "assay_result": "91% (4 hours)"
  },
  {
    "molecule": "Cc1onc(-c2ccc(F)cc2)c1COc1cnc(-c2cnn3c2COCC3)cn1 [Compound 44]",
    "assay_result": "94% (4 hours)"
  },
  {
    "molecule": "Cc1onc(-c2ccc(F)cc2)c1COc1cnc(-c2cc3n(c(=O)n2)CCN3C)cn1 [Compound 47]",
    "assay_result": "82% (4 hours)"
  },
  {
    "molecule": "Cc1cn2c(n1)CN(c1cnc(OCc3c(-c4ccc(F)cc4)noc3C)cn1)CC2 [Compound 46]",
    "assay_result": "87% (4 hours)"
  },
  {
    "molecule": "Cc1onc(-c2ccc(F)cc2)c1COc1ccc(-c2nnc3n2CCN(C)C3=O)cn1 [Compound 2]",
    "assay_result": "46% (4 hours)"
  },
  {
    "molecule": "Cc1onc(-c2ccc(F)cc2)c1COc1ccc(C(=O)NC2CCOCC2)cn1 [WO2009071476, Example 109, reference compound]",
    "assay_result": "15% (4 hours)"
  },
  {
    "molecule": "Cc1onc(-c2ccc(F)cc2)c1COc1ccc(-c2cc3n(c(=O)n2)C[C@]24CO[C@H](CN32)C4)cn1 [Compound 38]",
    "assay_result": "75% (4 hours)"
  },
  {
    "molecule": "Cc1onc(-c2ccc(F)cc2)c1COc1cnc(-c2nnc3n2CCN(C2CCC2)C3=O)cn1 [Compound 4]",
    "assay_result": "89% (4 hours)"
  },
  {
    "molecule": "Cc1onc(-c2ccc(F)cc2)c1COc1cnc(N2CCn3c(nnc3C(F)(F)F)C2=O)cn1 [Compound 26]",
    "assay_result": "80% (4 hours)"
  },
  {
    "molecule": "Cc1onc(-c2ccc(F)cc2)c1COc1ccc(C(=O)NC2CCOCC2)nn1 [WO2009071477, Example 63, reference compound]",
    "assay_result": "0% (4 hours)"
  },
  {
    "molecule": "Cc1onc(-c2ccc(F)cc2)c1COc1cnc(-c2nnc3n2CCN(C)C3)cn1 [Compound 16]",
    "assay_result": "76% (4 hours)"
  },
  {
    "molecule": "Cc1onc(-c2ccc(F)cc2)c1COc1cnc(N2CCN3CCOC[C@@H]3C2)cn1 [Compound 40]",
    "assay_result": "98% (4 hours)"
  },
  {
    "molecule": "Cc1onc(-c2ccc(F)cc2)c1COc1cnc(-c2nnn3c2COCC3)cn1 [Compound 12]",
    "assay_result": "93% (4 hours)"
  },
  {
    "molecule": "Cc1onc(-c2ccc(F)cc2)c1COc1cnc(N2CCn3ccnc3C2)cn1 [Compound 48]",
    "assay_result": "88% (4 hours)"
  },
  {
    "molecule": "Cc1onc(-c2ccc(F)cc2)c1COc1ccc(N2CCN3CCOC[C@@H]3C2)nn1 [Compound 49]",
    "assay_result": "31% (4 hours)"
  },
  {
    "molecule": "Cc1onc(-c2ccc(F)cc2)c1COc1ccc(-c2nnc3n2CCOC3)nn1 [Compound 18]",
    "assay_result": "51% (4 hours)"
  },
  {
    "molecule": "Cc1onc(-c2ccc(F)cc2)c1COc1ccc(-c2nnc3n2CCOC3)cn1 [Compound 17]",
    "assay_result": "65% (4 hours)"
  },
  {
    "molecule": "Cc1onc(-c2ccc(F)cc2)c1COc1ccc(C(=O)N2CCS(=O)(=O)CC2)cn1 [WO2009071476, Example 112, reference compound]",
    "assay_result": "2% (4 hours)"
  },
  {
    "molecule": "Cc1onc(-c2ccc(F)cc2)c1COc1cnc(-c2nnc3n2CCC3)cn1 [Compound 23]",
    "assay_result": "80% (4 hours)"
  },
  {
    "molecule": "Cc1onc(-c2ccc(F)cc2)c1COc1cnc(-c2cnn3c2CCC3)cn1 [Compound 3]",
    "assay_result": "102% (4 hours)"
  }
]
